Values from ChEMBL document CHEMBL1201862

Test system: SNB-75
TEST_PROTOCOL: NCI tumour cell line growth inhibition, 48 h
The source made the active and inactive calls. Cut-off read from the data, not from the text of the source: active = GI50 up to about 1.1 µM and inactive = higher.
PARAMETER: GI50

Query: Could you share what GI50 was measured for `Cc1cn2cc(-c3cccs3)nc2s1` , tested on SNB-75?
Result: > 100 µM (inactive)

Query: So what GI50 did CC12CCCCC1=C(F)C(F)(F)S2 (stereo not given) get with SNB-75?
Result: > 70.6 µM (inactive)

Query: Hello, I am looking for reported GI50 with SNB-75 for `COc1cc2c3cc1Oc1c(O)c(OC)cc4c1[C@H](Cc1ccc(cc1)Oc1cc(ccc1O)C[C@H]3N(C)CC2)N(C)CC4` . Could you help?
Result: 18.8 µM (inactive)

Query: // map `CC(=O)Nc1n[n+]([O-])c2cc(C)ccc2[n+]1[O-]` to recorded GI50 (system: SNB-75)
Result: 2.88 µM (inactive)

Query: Kindly state the measured GI50 obtained for O=C(N[C@H](CO)[C@H](O)c1ccc([N+](=O)[O-])cc1)C(Cl)Cl [CHLORAMPHENICOL] with SNB-75.
Result: 98.2 µM (inactive)

====

System: SNB-19
TEST_PROTOCOL: NCI tumour cell line growth inhibition, 48 h
Calls of active or inactive are those of the source. Rule as the data show it: active = GI50 up to about 1.1 µM and inactive = higher.
PARAMETER: GI50

Query: Reported GI50 for `Nc1ccc(Oc2ccc(C34CC5CC(C3)CC(c3ccc(Oc6ccc(N)cc6C(F)(F)F)cc3)(C5)C4)cc2)c(C(F)(F)F)c1` : what is it?
Result: 22.5 µM (inactive)

Query: Reported GI50, molecule COc1ccc2oc(C(=O)N3CC(CCl)c4ccc([N+](=O)[O-])cc43)cc2c1 (stereo not given) : ____
Result: 25.2 µM (inactive)

Query: Which GI50 value belongs to `FC(F)(F)c1cccc(-c2nc3ccccc3c3c2[C@@]2(N4CCCC4)CCCC[C@@H]32)c1` ?
Result: 50.9 µM (inactive)

Query: For the molecule shown here, `ClC(Cl)[Si]12OCCN(CCO1)CCO2` , give the reported GI50.
Result: > 100 µM (inactive)

Query: May I ask what GI50 has been recorded for `C/C(=N\NS(=O)(=O)c1ccc(C)cc1)c1ccccn1` ?
Result: 74.8 µM (inactive)

====

System: TK-10
TEST_PROTOCOL: NCI tumour cell line growth inhibition, 48 h
The source made the active and inactive calls. No stated cut-off is given here; in the data, active = GI50 up to about 1.1 µM and inactive = higher.
// allowed return values: true (1) (active), false (0) (inactive)

Query: Called result for `O=C(O)CN(c1ccccc1)S(=O)(=O)c1ccc(Cl)cc1`
Result: false (0)

Query: Kindly provide the recorded test outcome for the following compound: CC(=O)Nc1ccc(C2CC(c3ccc([N+](=O)[O-])cc3)=Nc3ccccc3S2)cc1 (centres undefined)
Result: false (0)

Query: So what was the verdict on O=C1NC(O)c2ccccc2O1 (centres undefined) in this test?
Result: false (0)

Query: Write down the call the test reported for this compound. Item: `Cc1cc(S(=O)(=O)Nc2nnc3cnc4ccccc4n23)c(S)cc1Cl`
Result: false (0)

Query: What classification did `CCc1n[nH]c(=O)n1/N=C/c1ccc(C)cc1` end up with in this test?
Result: false (0)

Query: Hi, sorry to bother you, what did the test record for Cc1ccccc1NC(=O)C1C(=O)N(c2ccccc2C)C(=O)/C1=N\NC(N)=O (centres undefined) ?
Result: false (0)

Query: Outcome logged for C[C@@H]1O[C@@H](O[C@H]2[C@H](Oc3cc(O)c4c(=O)cc(-c5ccc(O)cc5)oc4c3)O[C@H](CO)[C@@H](O)[C@@H]2O)[C@H](O)[C@H](O)[C@H]1O [RHOIFOLIN] in this assay:
Result: false (0)

Query: Which outcome was entered for the compound `Oc1nc(S)nc(SCc2c(Cl)c(Cl)c(Cl)c(Cl)c2Cl)n1` in this test?
Result: false (0)

Query: Call for entry O=C(O)c1ccccc1CC(Cc1ccccc1)C(=O)O (centres undefined) :
Result: false (0)

Query: Each compound tested received a call. Report the one for CCOC(=O)C1C(=O)CC(C)(O)C(C(=O)OCC)C1c1ccc(O)c(OC)c1 (centres undefined) .
Result: false (0)

Query: Which outcome did this test record for the compound O=[N+]([O-])c1ccc(/C=N/CC2CCCN3CCCCC23)cc1 (centres undefined) ?
Result: false (0)

Query: Give the logged outcome of this assay for the following compound: `O=C1CCc2cc3c(cc21)CC1(Cc2ccccc2C1)C3`
Result: false (0)

Query: Status in this test for `N#Cc1cc(-c2nc3c(F)cccc3s2)ccc1N` ?
Result: false (0)

Query: Which outcome did this test record for the compound `COc1ccc2c(c1)/c(=C/C#N)c1c3ccccc3[n+](C)n21` ?
Result: false (0)

Query: Given CC(C)(C)OCC1NC(=O)[C@@H]2Cc3c([nH]c4ccccc34)C(c3ccccc3)N2C1=O (some centres undefined) , state the outcome it received in this test.
Result: false (0)

Query: Hello, I am checking results. What call was entered for N#CCC1COc2ccccc2O1 (centres undefined) ?
Result: false (0)

Query: Which result was noted for this compound in the test: `O=C1NC(=S)N/C1=C\c1ccc(Sc2ccccc2C(=O)O)s1`
Result: false (0)

Query: In this assay, the call recorded for `O=C(O)[C@H](CCC[C@H]1C(=O)O[C@H](c2ccccc2)[C@H](c2ccccc2)N1C(=O)OCc1ccccc1)N[C@@H](c1ccccc1)[C@H](O)c1ccccc1` was what?
Result: false (0)

Query: How did this test come out for `Cc1ccc(C(=O)c2nnc(C(=O)c3ccc(C)cc3)nn2)cc1` ?
Result: false (0)

Query: // param item: `CCN(CC)CCCNc1nncc2c(C)c3[nH]c4ccc(OC)cc4c3cc12` ; yields the recorded call
Result: false (0)

Query: What did the test return for CN(C)CCOc1ccc2[nH]c(C(=O)N3CC(CCl)c4ccc(N)cc43)cc2c1 (centres undefined) ?
Result: true (1)

Query: What is the recorded call for this compound in the test? `CC(=O)O[C@H]1C(=O)[C@@]2(C)[C@H]([C@H](OC(=O)C3CCCCC3)[C@]3(O)C[C@H](OC(=O)[C@H](O)[C@@H](NC(=O)OC(C)(C)C)c4ccccc4)C(C)=C1C3(C)C)[C@]1(OC(C)=O)CO[C@@H]1C[C@@H]2O`
Result: true (1)

Query: // return assay outcome for CC(=O)OCC1=C2C(OC(=O)C(C)C)CC3(COC(C)=O)OC3/C=C\C3(C)OC3C2OC1=O (centres undefined)
Result: false (0)

Query: Tell me the assay call for CO[C@H]1C[C@H](O[C@H]2CC[C@]3(C=O)[C@H]4CC[C@]5(C)[C@@H](C6=CC(=O)OC6)CC[C@]5(O)[C@@H]4CC[C@]3(O)C2)O[C@H](C)[C@H]1O [CYMARIN] please.
Result: true (1)

Query: Per the records of this test, what outcome belongs to `CN(C)c1snc2c1c(=O)n(C)c(=O)n2C` ?
Result: false (0)

Query: Each compound tested received a call. Report the one for CCC(NC1=NCCO1)c1cccs1 (centres undefined) .
Result: false (0)

Query: Hello, I am checking results. What call was entered for CNC(=O)OC(C)CN1c2ccccc2Sc2ccccc21 (centres undefined) ?
Result: false (0)

Query: In this assay, the call recorded for `C/C(=N\NS(=O)(=O)c1ccc(C)cc1)c1ccccn1` was what?
Result: false (0)

Query: Please share the test call associated with `Cc1ccc(NC(=O)C(=O)CC(=O)c2c(C)[n+]([O-])c3ccccc3[n+]2[O-])cc1C` .
Result: false (0)

Query: What did the test return for `[N-]=[N+]=C1CNC(=O)NC1=O` ?
Result: false (0)

Query: Could you check what this test reported for `S=C(Nc1ccccc1)N(/N=C/C=C/c1ccccc1)c1nnc(-c2ccccc2)c(-c2ccccc2)n1` ?
Result: false (0)

Query: In this assay, the call recorded for `COc1cc(/C=N\N(C)C)cc(/C=N/N(C)C)c1O` was what?
Result: false (0)

Query: Would you mind telling me which call this test gave C[C@]12CC[C@@H]3c4cc(C=O)c(OCc5ccccc5)cc4CC[C@H]3[C@@H]1CCC2OCc1ccccc1 (some centres undefined) ?
Result: false (0)

Query: Outcome logged for CCC12CCC[C@@]13C=C[C@H](O3)C(C)(C)C2=O (some centres undefined) in this assay:
Result: false (0)

Query: Could you please tell me the result logged for `Cc1c(/C=N/NC(=S)Nc2ccccc2Cl)c(=O)n(-c2ccccc2)n1C` in this assay?
Result: false (0)

Query: Status in this test for `COC(=O)C1=C(C)NC(C)=C(C(=O)OC)C1c1cccc(N=O)c1` ?
Result: false (0)

Query: GET /call?item= `Cc1ccc(NC(=S)N/N=C(/c2ccccc2)c2ccccn2)cc1` returns the recorded outcome of this test.
Result: true (1)

Query: Short answer needed: outcome of this test for `COc1ccc([N+](=O)[O-])c2c(NCCCN(C)C)c3ccccc3nc12` ?
Result: true (1)

Query: Look up the recorded call for `Cc1ccc2c(c1)[nH]c(=S)n2/C=C1\C(=O)Oc2ccccc2C1=O` in this test.
Result: false (0)
